Test: NCI Yeast Anticancer Drug Screen. Data for the mec2-1 strain (AID 157)
Details: S. cerevisiae mec2-1 strain, at 50.0 µM
The panel holds about 79,000 compounds, 15% with a hit somewhere; the sample as a whole holds those more often. The source made the active and inactive calls. Rule as the data show it: active = growth inhibition above about 70%; inactive = the rest.
Select the matching outcome among Y = active, N = inactive

Study these solved cases before continuing.
{"MOLECULE": "O=c1c2cc(Br)ccc2n(C2OC(CO)C(O)C(O)C2O)c(=S)n1-c1ccccc1 (centres undefined)", "ASSIGNED_CATEGORY": "N"}
{"MOLECULE": "C1CSCCSCCCSC2CCCCC2SC1 (centres undefined)", "ASSIGNED_CATEGORY": "N"}
{"MOLECULE": "COCOc1ccc(C=O)cc1", "ASSIGNED_CATEGORY": "N"}
{"MOLECULE": "CC(=O)O[C@H]1CC[C@@]2(C)[C@@H](CC[C@@H]3[C@@H]2CC(=O)[C@]2(C)[C@@H]4[C@H](C[C@@H]32)O[C@]2(CC[C@@H](C)CO2)[C@H]4C)C1", "ASSIGNED_CATEGORY": "N"}
{"MOLECULE": "CCN(CC)c1ccccc1C", "ASSIGNED_CATEGORY": "N"}

### Prompt How did this test come out for Cc1ccc(S(=O)(=O)N/N=C2/CCCOC2)cc1 ?
### Response N

### Prompt What do you have for CCC(O)C(CC)[N+](=O)[O-] (centres undefined) ?
### Response N

### Prompt What do you have for O=C(Nc1cccc(Cl)c1)C(=O)C(C(=O)c1ccc2ccccc2c1)C1OC(=O)c2ccccc21 (centres undefined) ?
### Response N

### Prompt What do you have for Oc1c(CN2CCN(c3ccccc3)CC2)cc(Br)c2cccnc12 ?
### Response N

### Prompt What do you have for CN1C(=O)N/C(=C\c2ccc(S(=O)(=O)NN)cc2)C1=O ?
### Response N

### Prompt What do you have for C[N+](C)(C)C12CCCCCC1SC2 (centres undefined) ?
### Response N

### Prompt What do you have for COC(=O)C1(C2CCCCCCC2=O)NC(=S)NC(=O)C1C#N (centres undefined) ?
### Response N

### Prompt What do you have for CCc1c(CNc2ccc(Cl)c(Cl)c2)ccc2nc(N)nc(N)c12 ?
### Response Y

### Prompt What do you have for CN(C)CCNC(=O)c1cccc2c(Nc3ccc(S(=O)(=O)N=C(N)N)cc3)c3ccccc3nc12 ?
### Response N

###

Test: NCI Yeast Anticancer Drug Screen. Data for the mec2-1 strain (AID 157)
Settings: S. cerevisiae mec2-1 strain, at 50.0 µM, hits give high values
Compounds without any hit were thinned out: in the full panel of roughly 79,000, 15% have a hit.
OBSERVATION_TYPE: growth inhibition (%)
Write it as a number; the unit % goes unstated.

The cases that follow already have their growth inhibition on record.
{"COMPOUND": "C/C(=N/NC(N)=S)c1c[nH]c(=O)[nH]c1=O", "OBSERVATION_TYPE": "growth inhibition", "UNIT_STRING": "%", "RECORDED_MEASUREMENT": -16.6}
{"COMPOUND": "CCCCCCCCCCCCCCCCCC", "OBSERVATION_TYPE": "growth inhibition", "UNIT_STRING": "%", "RECORDED_MEASUREMENT": -6.9}
{"COMPOUND": "Cc1ccc(NC(=S)/N=C/c2c(O)[nH]c(=O)[nH]c2=O)c(C)c1", "OBSERVATION_TYPE": "growth inhibition", "UNIT_STRING": "%", "RECORDED_MEASUREMENT": -20.4}

Next, consider the following compound.
### Prompt I would be grateful if you could share the reported growth inhibition for CCCCCCCCCCCCCCCCOCC(COP(=O)(O)OCC1OC(n2cc(CC)c(=O)[nH]c2=O)CC1O)OC(=O)CCCCCCCCCCCCCCC (stereo not given) .
### Response -5.55

# credit: PubChem BioAssay (NCI)
